Every entry's value here was drawn from PubChem BioAssay (NCI).

- assayName: NCI Yeast Anticancer Drug Screen. Data for the bub3 strain (AID 167)
- assayContext: S. cerevisiae bub3 mutant strain, at 50.0 µM (retest, dose inferred, filed as 5.0)
This is part of a sample that, as a whole, favours compounds with a hit. Of some 79,000 tested, about 15% had one in any assay. Calls of active or inactive are those of the source. No stated cut-off is given here; in the data, active means growth inhibition above about 70%; inactive means the rest.
Pick one and only one: label 1 (active), label 0 (inactive)

compound | class
Cc1ccccc1C(=O)c1ccc(O)c2ccccc12 | label 1
O=c1c2ccccc2[nH]c2c1[nH]c1ccccc12 | label 0
Nc1ccccc1N=Cc1ccccc1O | label 0
O=C(c1ccc([N+](=O)[O-])cc1)C(Br)C(Br)c1ccnc2ccccc12 (stereo unspecified) | label 1
Oc1ccc2ccccc2c1/C=N\Sc1ccccc1 | label 1

Any idea what this test logged for BrC1=CC(Br)=C2N=C(C(Br)(Br)Br)N=C3N=C(C(Br)(Br)Br)N=C1N32 ?
label 1

Any idea what this test logged for COC(=O)C(CBr)CBr ?
label 1
